Reference source: patent US20190233512A1

In this section, each of the binders is paired with its reported Igrov 2° Antibody Cell Killing, Nb-SC239: span (%).
biological target: FOLR1 on FOLR1-positive Igrov1 cells (UniProt P15328 25-234, limits assumed); test: cell-based or functional assay
Sequence (P15328 25-234 limits assumed): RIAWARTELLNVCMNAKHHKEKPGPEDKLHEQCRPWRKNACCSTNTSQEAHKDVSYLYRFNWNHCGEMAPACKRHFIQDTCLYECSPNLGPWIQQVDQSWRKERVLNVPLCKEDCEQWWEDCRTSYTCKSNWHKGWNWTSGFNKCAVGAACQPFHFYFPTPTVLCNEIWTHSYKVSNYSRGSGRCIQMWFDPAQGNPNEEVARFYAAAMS
# value in %; strip the unit string

Some entries whose results are on file:
SRP2060-E05 (antibody, V domains shown) VH: EVQLLESGGGLVQPGGSLRLSCAFSGFSLSTFGMGVGWVRQAPGKGLEWVSHIWWDDDKYYHPALKGRFTVSKDNSKNTVYLQMNSLRAEDTAVYYCGRNHFPHYYGSSHWYFNVWGQGTTVTVSS VL: EIVMTQSPATLSLSPGERATLSCKASQDINSYLSWYQQKPGQAPRLLIYRANRLVDGIPARFSGSGSGTDYTLTISSLEPEDFAVYYCLQYDEFPYTFGGGTKVEIK = 71
SRP2060-E10 (antibody, V domains shown) VH: EVQLLESGGGLVQPGGSLRLSCAFSGFSLSTFGMGVGWVRQAPGKGLEWVSHIWWDDDKYYHPALKGRFTISKDNSKNTVYLQMNSLRAEDTAVYYCGRNHFPHYYGSSHWYFNVWGQGTTVTVSS VL: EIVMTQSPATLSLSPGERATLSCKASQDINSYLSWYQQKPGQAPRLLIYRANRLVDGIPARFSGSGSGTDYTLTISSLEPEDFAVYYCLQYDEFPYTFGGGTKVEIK = 68
SRP2060-B01 (antibody, V domains shown) VH: EVQLLESGGGLVQPGGSLRLSCALSGFSLSTFGMGVGWVRQATGKGLEWVSHIWWDDDKYYHPALKGRFTISKDNSKNTVHLQMNSLRAEDTAVYYCGRNHFPHYYGSSHWYFNVWGQGTTVTVSS VL: DIQMTQSPSTLSASVGDRVTITCKASQDINSYLSWYQQKPGKAPKLLIYRANRLVDGVPSRFSGSGSGTEFTLTISSLQPDDFATYYCLQYDEFPYTFGGGTKVEIK = 76

If you can, please state the reported Igrov 2° Antibody Cell Killing, Nb-SC239: span (%) value of SRP2060-A06 (antibody, V domains shown) VH: EVQLLESGGGLVQPGGSLRLSCAFSGFSLSTFGMGVGWVRQAPGKGLEWVGHIWWDDDKYYYPALKGRFTISKDNSKNTVYLQMNSLRAEDTAVYYCGRNHFPHYYGSSHWYFDVWGQGTTVTVSS VL: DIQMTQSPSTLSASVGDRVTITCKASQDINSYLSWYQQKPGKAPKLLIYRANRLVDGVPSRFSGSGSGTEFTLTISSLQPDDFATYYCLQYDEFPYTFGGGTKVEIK . 66
